# tested on: Delta-type opioid receptor (Mus musculus)
# method notes: Agonist activity was assessed in mouse vas deferens (MVD) smooth muscle bioassay

compound	display unit	IC50
CC1(C)SSC[C@H](NC(=O)[C@@H](N)Cc2ccc(O)cc2)C(=O)N[C@H](Cc2ccccc2)C(=O)N[C@@H]1C(=O)O (stereo in doubt; 4)	nM	9.72
CC1(C)SSC[C@H](NC(=O)[C@@H](N)Cc2ccc(O)cc2)C(=O)N[C@H](Cc2ccccc2)C(=O)N[C@@H]1C(=O)O (stereo in doubt; 5)	nM	4.13
C[C@@H](c1ccccc1)[C@H]1NC(=O)[C@@H](NC(=O)[C@@H](N)Cc2ccc(O)cc2)CSSC(C)(C)[C@@H](C(=O)O)NC1=O	nM	1110
CC1(C)SSC[C@H](NC(=O)[C@@H](N)Cc2ccc(O)cc2)C(=O)N[C@H](Cc2ccccc2)C(=O)N[C@@H]1C(=O)O (stereo in doubt; 3)	nM	51.8

* * *

# tested on: Delta-type opioid receptor (Mus musculus, UniProt P32300)
# Sequence (P32300 whole entry): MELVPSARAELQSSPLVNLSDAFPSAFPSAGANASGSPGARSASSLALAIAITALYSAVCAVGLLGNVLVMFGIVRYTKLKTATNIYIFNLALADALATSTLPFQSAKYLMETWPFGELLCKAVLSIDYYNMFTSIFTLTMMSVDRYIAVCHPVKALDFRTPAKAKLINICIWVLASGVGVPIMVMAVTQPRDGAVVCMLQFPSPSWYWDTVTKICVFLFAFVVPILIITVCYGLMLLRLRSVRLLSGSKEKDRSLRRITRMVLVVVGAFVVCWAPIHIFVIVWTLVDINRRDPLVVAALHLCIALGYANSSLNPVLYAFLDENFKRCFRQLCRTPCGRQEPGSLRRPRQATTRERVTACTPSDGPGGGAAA
# method notes: Binding affinity for delta opioid receptor using [3H]DPDPE from mouse vas deferens
Each entry below carries its recorded Ki.
measured attribute: Ki (nM)

compound	measured attribute	display unit	reported value
C[C@@H](c1ccccc1)[C@H]1NC(=O)[C@@H](NC(=O)[C@@H](N)Cc2ccc(O)cc2)CSSC(C)(C)[C@@H](C(=O)O)NC1=O	Ki	nM	237
CC1(C)SSC[C@H](NC(=O)[C@@H](N)Cc2ccc(O)cc2)C(=O)N[C@H](Cc2ccccc2)C(=O)N[C@@H]1C(=O)O (stereo in doubt; 4)	Ki	nM	4.8
CC1(C)SSC[C@H](NC(=O)[C@@H](N)Cc2ccc(O)cc2)C(=O)N[C@H](Cc2ccccc2)C(=O)N[C@@H]1C(=O)O (stereo in doubt; 6)	Ki	nM	70
CC1(C)SSC[C@H](NC(=O)[C@@H](N)Cc2ccc(O)cc2)C(=O)N[C@H](Cc2ccccc2)C(=O)N[C@@H]1C(=O)O (stereo in doubt; 5)	Ki	nM	1.52
CC1(C)SSC[C@H](NC(=O)[C@@H](N)Cc2ccc(O)cc2)C(=O)N[C@H](Cc2ccccc2)C(=O)N[C@@H]1C(=O)O (stereo in doubt; 3)	Ki	nM	12.3

* * *

# tested on: Mu-type opioid receptor (Cavia porcellus)
# Sequence (P97266 whole entry): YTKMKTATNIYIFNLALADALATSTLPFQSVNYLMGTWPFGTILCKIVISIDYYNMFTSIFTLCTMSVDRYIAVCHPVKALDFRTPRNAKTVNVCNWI
# method notes: Agonist activity was assessed in an guinea pig ileum (GPI) smooth muscle bioassay
# Type: functional, tissue-based
pIC50: −log10 of the molar value.
measured attribute: pIC50

compound	reported value
C[C@@H](c1ccccc1)[C@H]1NC(=O)[C@@H](NC(=O)[C@@H](N)Cc2ccc(O)cc2)CSSC(C)(C)[C@@H](C(=O)O)NC1=O	< 4.52
